Test: Protein binding in rat plasma assessed as unbound fraction by ultra-filtertion method
Type: ADME, cell-free
outcome.measure: Fu

QUERY: Please look up its Fu: "C[C@]1(c2cc(/C=C(\F)c3ccc(C#N)cn3)ccc2F)N=C(N)S[C@@]2(C(=O)N3CCOCC3)C[C@H]21"
RESULT: 0.026

###

Biological target: UniProt:P10635
Sequence (P10635 whole entry): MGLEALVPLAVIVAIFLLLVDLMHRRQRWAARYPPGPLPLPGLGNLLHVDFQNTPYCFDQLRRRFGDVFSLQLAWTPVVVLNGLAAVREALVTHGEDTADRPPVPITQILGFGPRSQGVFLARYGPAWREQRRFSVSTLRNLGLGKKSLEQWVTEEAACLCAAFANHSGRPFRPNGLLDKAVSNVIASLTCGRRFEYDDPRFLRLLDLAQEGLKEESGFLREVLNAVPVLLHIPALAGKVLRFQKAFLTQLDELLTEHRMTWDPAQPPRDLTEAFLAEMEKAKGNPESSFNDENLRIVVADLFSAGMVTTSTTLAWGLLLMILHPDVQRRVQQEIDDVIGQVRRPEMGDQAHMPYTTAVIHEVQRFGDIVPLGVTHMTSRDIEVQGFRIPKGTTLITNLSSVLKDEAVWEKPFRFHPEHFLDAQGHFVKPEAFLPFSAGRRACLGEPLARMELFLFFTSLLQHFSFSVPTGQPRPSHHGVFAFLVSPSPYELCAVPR
outcome.measure: IC50
Answers without a unit are incomplete; give the number and then its unit.

QUERY: Please look up its IC50: "C[C@]1(c2cc(/C=C(\F)c3ccc(C#N)cn3)ccc2F)N=C(N)S[C@@]2(C(=O)N3CCOCC3)C[C@H]21"
RESULT: 15.7 µM
